Provide the reported pEC50 hSCTR of each item.
# assay-target: human secretin receptor (hSCTR) (human, UniProt P47872 23-440)
# Sequence (P47872 23-440): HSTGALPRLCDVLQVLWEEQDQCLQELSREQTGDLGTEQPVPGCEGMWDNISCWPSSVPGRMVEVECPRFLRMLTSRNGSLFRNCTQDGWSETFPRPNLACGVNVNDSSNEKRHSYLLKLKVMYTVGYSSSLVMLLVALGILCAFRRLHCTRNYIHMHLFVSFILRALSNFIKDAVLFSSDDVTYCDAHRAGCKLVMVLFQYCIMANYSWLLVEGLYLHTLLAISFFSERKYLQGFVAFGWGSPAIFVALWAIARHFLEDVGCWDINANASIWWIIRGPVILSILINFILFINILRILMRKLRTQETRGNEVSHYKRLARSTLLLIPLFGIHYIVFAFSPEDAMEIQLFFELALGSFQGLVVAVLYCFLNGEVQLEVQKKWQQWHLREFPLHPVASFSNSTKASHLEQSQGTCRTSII
# measurement-protocol: cell-based or functional assay
Numbered stars: 1 amine (or outer) side, 2 acyl side, 3 side chain; on linkers, the order of the positions; unused ones are H or OH. Square brackets hold non-standard residues; d marks the D form. Side chains are listed from the residue outwards. Ends that are not written are not given here. * marks the point of attachment. C20 diacid = O=C(O)CCCCCCCCCCCCCCCCCCC(=O)*; γGlu = O=C(O)[C@H](CCC(=O)[*:2])N[*:1]; AEEA = NCCOCCOCC(=O)O; Aib = CC(C)(N)C(=O)O

Data point: H[Aib]EGTFTSDVSTLK([AEEA-AEEA-γGlu-C20 diacid])EEAA[Aib]QRFLEHLV-NH2 [SEQ ID NO: 77] ; pEC50 hSCTR = 5.8 -log M

Measured pEC50 hSCTR, H[Aib]EGTFTSDVSYLKEEA[Aib]LQRYLEHLV-NH2 (not fully specified (residue 14); also: K14 lipidated with C20DA[γE][OEG][OEG]- or C18DA[γE][OEG][OEG]-) [SEQ ID NO: 141] : 6.6 -log M
